Hi there, I'd appreciate the recorded phosphorylation enrichment for every entry that follows.
System: c-Abl (mouse);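 also: 11-residue human phosphosite peptides and single-mutation variants displayed on the E. coli surface, counted by deep sequencing, each peptide's frequency after selection divided by its frequency in the unselected input library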;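 also: frequency after pTyr selection over input frequency; kinase dosed for 20-30% of maximal phosphorylation in three min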
method description: phosphorylation enrichment, bacterial display (enrichment ratio); higher = better substrate or ligand; peptides without Tyr show the background
One number for each entry.

> print(dat)
                  sequence.entry      tested.on  result
1  WQQQSYLDFGI [CTNNB1_Y30_S33F]  c-Abl (mouse)   0.658

Record phosphorylation enrichment per entry; entries follow.
1. SSPMKYQQNVS [EGFEM1P_Y160]
2. KNITEYCRHLI [RECQL_Y492_D495H]

1: 0.562; 2: 0.654

For each entry beneath this line, provide reported phosphorylation enrichment.
1. LTGIAYGLPHW [SLC22A14_Y291_S292G]
2. DSLASYLDKVR [KRT10_Y160_R156S]
3. FFRKFYNKSED [RYR1_Y4864]
4. KWRGQYDVAIE [BTK_Y425_K430E]
5. HVIKLFGACSQ [RET_Y791_Y791F]

[0.705, 0.629, 0.421, 0.537, 1.1]
